assay: soluble on expression in E. coli; label from the status in PepcDB or PDB records
Parameter measured: soluble on expression in E. coli

residue_codes=MESLQNHFLIAMPSLDDTFFERTVIYLCEHDEKGAMGLVINKPLGIEVNSLLEQMDLPTEQVSADLAMGSQVLMGGPVSQDRGFVLHTSQPYWANSTELGSGLMLTTSRDVLTAIGSKRSPDKFLVALGYAGWSKNQLEQELADNSWLTIPADHALLFDINHEDRWQQASRSLGFEAWQLSTQAGHALEHHHHHH obs_value=soluble
residue_codes=KVSSQSEDSSIKLIQITDTHLFAAEDGSLLSVNTADSFAAVVAAIGEEQVEFDAILATGDISQDHTPESYQRFVRGIQPLKKACYWLPGNHDYKPSMHSVLPTQQIQAVEHVLLGEHWQVVLLDSQVVGVPHGKLSEQQLQLLDNKLTEYPERHTLVLLHHHPLLVGSAWLDQHTLKESERFWDVVAKHSNVKAILCGHVHQDMDRIHLGARVMATPSTCVQFKPNSQDFALDNCSPGWRELTLHADGQVSTQVKRLKQGRFLPDFNSNGY obs_value=soluble

====

assay: soluble on expression in E. coli; label from the status in PepcDB or PDB records
Parameter measured: soluble on expression in E. coli

residue_codes=MGHHHHHHSHLKHKMMNYMKDFRMIEDSENPEIVISVGGDGTLLQAFHQYSHMLSKVAFVGVHTGHLGFYADWLPHEVEKLIIEINNSEFQVIEYPLLEIIMRYNDNGYETRYLALNEATMKTENGSTLVVDVNLRGKHFERFRGDGLCVSTPSGSTAYNKALGGALIHPSLEAMQITEIASINNRVFRTVGSPLVLPKHHTCLISPVNHDTIRMTIDHVSIKHKNVNSIQYRVANEKVRFARFRPFPFWKR parameter_measured="soluble on expression in E. coli" obs_value="not soluble"
residue_codes=MAHHHHHHMGENRRPSRWSSERYTNLFVPNYIPPELMLYDEGQFLRAFLLRVLSIDLNRLIETKRCGDYFINIPLVPEYNSEGQRTNTPDELVAEKRLKVMDELTNLLRQHSELELNAKTQKEVVRKRYFTQEEMDNGAYGAILGARGMVHQELERLTKCKIVLAGRGITNALKDTSANAARVALEDPHARITAPNEQALQHAMERIEWILSDDPEALEFRENNRKRMAQIEGRYDPRTWVSLAERNAKNPRRMGEKREREEEAKEELDADLQEFLDEL parameter_measured="soluble on expression in E. coli" obs_value=soluble
residue_codes=MKNKSLLLAVAISATLLAGCKNGVNGNLIASSGMSTYKAATLSDADVKALSNNACKQMDSENQLAGSKSKYTKRLSKIAKALGNNIDGTPVSYKVYMTSDINAWAMANGCVRVYSGLMDLMTDNEIEGVLGHELGHVSLGHSRKAMQTAYATLAARDAISATSGVAAQLSQSQLGDLAEGVINSAFSRSQESDADDFSYDLLKKRGINTQGLVTAFDKFATMDAGHAKSLMDSHPASADRAQHMRDRIAEDKKLEHHHHHH parameter_measured="soluble on expression in E. coli" obs_value="not soluble"
residue_codes=MKALNLKTPGREDDDVDEVLDENTVQDVNENIMLKGLGGKENLQTIDHCATRLRLTVKDTALVDEALLKKAGAKGVVKSGGQSVQVIIGPNVEFAAEELRAAVK parameter_measured="soluble on expression in E. coli" obs_value="not soluble"
residue_codes=MNNTVKTDGDSVSGRDLPITKISEDRFERSAYSAQLANIICDVAPWGASTVFSLTGQWGSGKTSLVNLIRSEESLSNEKWTIVDFNPWVASDPQSLIEEFYRVIVGTVPDDKTGQKIKTVLQKTFSTIGSIAGGVGGFGVLEALALSKGVDAANAVYKTWKQEQDSWPTLYTRAANHFKDLNKRILIVVDDIDRLHTDELALLMKVIRLLGRFPQVNYLLVYEEESLLTTLARSTAVGGSEDDALRFMEKIVQYPFDVPPLTSFQIEKELSALFDKLFQGVSLSGDPEDFALVKSRMFDVWEKTLVTPRLLHRFAALLTNWTRIYGSGEVNGVDLTILATIRIVFPSVYKRLSRAKEVLLQGGRTTGLEHHHHHH parameter_measured="soluble on expression in E. coli" obs_value=soluble
residue_codes=MASKASGGSTRNGRDSISKRLGVKRYDGQFVKAGNIIVRQRGTRIYPGKNVGMGSDYTLFALKDGYVYFETRRKKKFVSVLSPEEWEKVMAQKNGKVH parameter_measured="soluble on expression in E. coli" obs_value="not soluble"
residue_codes=MGSDKIHHHHHHVYTSFYGFKAKPFQLSPDPSFFFGSKGHNRAMAYLEYGLAQAEGFIVVTGEVGAGKTTLVRNLFRQLEPEKIVAAQIVNTSLDSDDTLRMVAAAFGLPLAQGNPGKTPVLVALEKFFRQCEQQGKRALLVVDEAQNLSPQTVEELRMLSNFQGDNKSLLQTFLLGQPEFRKTLLGNDMQQLRQRITATYHLGPMDRAETKSYIEHRLKTVGWGGNPGFDEEAFDAIHQYTGGIPRRINALCDRLLLMGYLEKLQHFGVSEVNEVIRDIQQEFDAVEVEAGLLSGDKTSPLKEEQFAIGLEEMSNRIAKLEETVVSLMGLLKQILSLADVNKRLR parameter_measured="soluble on expression in E. coli" obs_value="not soluble"
residue_codes=SGSSEDQAYRLLNDYANGFMVSQVLFAACELGVFDLLAEAPGPLDVAAVAAGVRASAHGTELLLDICVSLKLLKVETRGGKAFYRNTELSSDYLTTVSPTSQCSMLKYMGRTSYRCWGHLADAVREGRNQYLETFGVPAEELFTAIYRSEGERLQFMQALQEVWSVNGRSVLTAFDLSVFPLMCDLGGDFFKDPLPEADLYILARVLHDWADGKCSHLLERIYHTCKPGGGILVIESLLDEDRRGPLLTQLYSLNMLVQTEGQERTPTHYHMLLSSAGFRDFQFKKTGAIYDAILARK parameter_measured="soluble on expression in E. coli" obs_value=soluble
residue_codes=MQFWRKQMSEIQHFSQQDIEILGEQTLYEGFFTLKRIQFKHKLFAGGQSGVVTRELLIKGAASAVIAYDPKEDSVILVEQVRIGAAYHPESHRSPWLLELIAGMVEKGEKPEDVALRESEEEAGIQVKNLTHCLSVWDSPGGIVERIHLFAGEVDSAQAKGIHGLAEENEDIKVHVVKREQAYQWMCEGKIDNGIAVIGLQWLQLNYAQLQQSWKRS parameter_measured="soluble on expression in E. coli" obs_value="not soluble"
residue_codes=MGSDKIHHHHHHGAGISTESGIPDYRSKDVGLYARIAHKPIYFQDYMRSNRCRQRYWSRNFLAWPRFGQAAPNINHYALSKWEASDRFQWLITQNVDGLHLKAGSKMVTELHGSALQVKCTTCDYIESRQTYQDRLDYANPGFKEEHVAPGELAPDGDIILPLGTEKGFQIPECPSCGGLMKTDVTFFGENVNMDKVNFCYEKVNECDGILSLGTSLAVLS parameter_measured="soluble on expression in E. coli" obs_value="not soluble"
residue_codes=SNIEALADKVRTYLEAGQIDGFVRTLRARPEAGGKVPVFVFHPAGGSTVVYEPLLGRLPADTPMYGFERVEGSIEERAQQYVPKLIEMQGDGPYVLVGWSLGGVLAYACAIGLRRLGKDVRFVGLIDAVRAGEEIPQTKEEIRKRWDRYAAFAEKTFNVTIPAIPYEQLEELDDEGQVRFVLDAVSQSGVQIPAGIIEHQRTSYLDNRAIDTAQIQPYDGHVTLYMADRYHDDAIMFEPRYAVRQPDGGWGEYVSDLEVVPIGGEHIQAIDEPIIAKVGEHMSRA parameter_measured="soluble on expression in E. coli" obs_value=soluble

====

experiment: soluble on expression in E. coli; label from the status in PepcDB or PDB records
Parameter measured: soluble on expression in E. coli

residue_codes=MAHHHHHHMADDILQCVHKEFKYVLISSDINDQIKELTFSGSERKFQGVLASYFRRIIFDEKGKNELKEVIKEKLKVSKENDNGGTERAGAEQEGDQNGQKSGQPNGAELNASAITPDLINNAVESSQTYQIIPLTIPTEKTNFFAVNCYIDDIGRIKKLPYNSRASRICSTEIYGDAFLSKTYDNEDFRRCDFTISEYEQFLQNPPKAENRYPPSDTMCVSG obs_value=soluble
residue_codes=MSVVSLVGQMYKREKPIPEWKTLMLRELEELFSKHRVVLFADLTGTPTFVVQRVRKKLWKKYPMMVAKKRIILRAMKAAGLELDDNLLDDLVRGQMLLVFADGNPFKIVKEVEKEKVAMPVKPGDKAETEIRIPEGMTNLTPGPILSVFGKLRIQYQVRGGKIYIAKETVVAKPGDVISEDLAGLLMALGIRPIEKGVRVKFAIDGGVLITEDLLRPDIEAFRGDVIDAAKEALGLATEIVYMPVPEAVESAIVKAALAASALAAETGFIAPGTVEDVVRKAIAEEAAVVALLGDKARELGIEEAAPAAAPAAEEKAEEEKKEEEEEKKEDQELSGLDSIFGGF obs_value=soluble
